Test system: SF-295 CNS
Assay: NCI tumour cell line growth inhibition, 48 h
value.kind: TGI

Reported TGI, molecule CC1CCC2N(C1)CC1C3(O)CC45OC6(O)C(O)CCC4(C)C6CCC5C3(O)CC(O)C1(O)C2(C)O (stereo not given) : ____
> 100 µM

Quick one: CC(=O)OC1CC2C(=O)C(=O)C1(C)C2(C)C (stereo not given)
> 100 µM

Input "Cc1ccc(C(C)C)cc1NC(=O)Nc1ccc([N+](=O)[O-])cc1"
5.11 µM

Follow-up item: "N/C(=N\Nc1ccc(S(N)(=O)=O)cc1)c1cnccn1"
> 100 µM

Same question, COc1ccccc1NC(=O)C(CC(C(=O)Nc1ccccc1OC)/C(C)=N/Nc1ccc([N+](=O)[O-])cc1[N+](=O)[O-])/C(C)=N/Nc1ccc([N+](=O)[O-])cc1[N+](=O)[O-] (stereo not given) this time
> 100 µM
